I'd be grateful if you could share measured IC50 for these entries.
- tested-on: Human Kv1.5 channels (Homo sapiens, UniProt P22460)
- Sequence (P22460 whole entry): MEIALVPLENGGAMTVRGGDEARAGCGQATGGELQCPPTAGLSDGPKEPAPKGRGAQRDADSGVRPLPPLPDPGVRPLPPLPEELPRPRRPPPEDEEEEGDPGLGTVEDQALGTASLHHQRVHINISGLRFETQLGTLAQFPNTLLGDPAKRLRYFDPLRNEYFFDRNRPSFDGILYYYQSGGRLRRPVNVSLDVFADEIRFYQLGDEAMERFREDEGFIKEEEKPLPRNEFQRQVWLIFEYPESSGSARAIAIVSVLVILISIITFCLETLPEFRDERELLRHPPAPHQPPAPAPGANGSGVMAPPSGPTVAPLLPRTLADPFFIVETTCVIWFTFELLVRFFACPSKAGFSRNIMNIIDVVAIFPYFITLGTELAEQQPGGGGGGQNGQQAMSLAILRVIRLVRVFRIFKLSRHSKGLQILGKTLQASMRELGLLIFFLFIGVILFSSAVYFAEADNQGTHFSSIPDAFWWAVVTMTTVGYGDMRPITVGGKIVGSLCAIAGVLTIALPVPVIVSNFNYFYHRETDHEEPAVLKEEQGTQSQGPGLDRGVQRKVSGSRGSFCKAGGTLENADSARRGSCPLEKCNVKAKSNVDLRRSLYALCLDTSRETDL
- experiment-notes: Kv1.5 currents in Xenopus oocytes, two-microelectrode voltage clamp
- condition-description: human Kv1.5 expressed in Xenopus laevis oocytes; voltage jumps 500 ms to 0 mV and 40 mV; room temperature; Hill equation
Give bare numbers, in µM.

Check out these entries, answers already filled in.
CC[C@H](NC(=O)c1ccccc1NS(=O)(=O)c1cccc(C)c1)c1ccccc1: 1.7
CCC(NC(=O)c1cc(OC)ccc1NS(=O)(=O)c1ccc(C)cc1)c1ccc(C)nc1 (centres unmarked): 1.1
CC[C@@H](NC(=O)c1cc(OC)ccc1NS(=O)(=O)c1ccc(C)cc1)c1ccccc1: 0.9
CCCS(=O)(=O)Nc1ccc(OC)cc1C(=O)N[C@@H](CC)c1ccccc1: 2.1
CCC(NC(=O)c1cc(OC)ccc1NS(=O)(=O)c1ccc(C)cc1)c1ccc(C)o1 (centres unmarked): 1.2
CC[C@H](NC(=O)c1ccccc1NS(=O)(=O)c1ccc(OC)cc1)c1ccccc1: 0.6
CC[C@H](NC(=O)c1ccccc1NS(=O)(=O)c1ccc(OC)c(OC)c1)c1ccccc1: 1.5

Shifting focus to the compound that follows.
Please fill in: IC50 reported for CCCCS(=O)(=O)Nc1ccc(C)cc1C(=O)NC(CC)Cc1cccnc1 (centres unmarked) = 1.8
